# target.entity: T1, GST–PPARγ fusion protein (purified ligand binding domain of PPARγ)
# T1 chain: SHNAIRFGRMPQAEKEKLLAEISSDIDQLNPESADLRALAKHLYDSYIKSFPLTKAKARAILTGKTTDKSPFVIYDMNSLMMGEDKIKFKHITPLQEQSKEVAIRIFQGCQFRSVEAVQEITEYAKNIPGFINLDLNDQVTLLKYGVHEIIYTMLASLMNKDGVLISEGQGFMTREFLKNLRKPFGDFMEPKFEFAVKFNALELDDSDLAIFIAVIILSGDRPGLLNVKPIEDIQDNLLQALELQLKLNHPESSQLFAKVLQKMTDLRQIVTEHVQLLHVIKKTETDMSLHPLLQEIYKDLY
# test.summary: FRET or BRET; homogeneous TR-FRET as a1, 12-concentration dose–response of pioglitazone; the EC50 is of the compound; delta ratio in % of the reference compound at 10 μM (RO4899100 for PPARα, edaglitazone for PPARγ)
# condition.context: both partners purified
Where no end group is shown, it is not given here. The star is where a group is joined. Biotin = O=C1N[C@H]2[C@H](CS[C@H]2CCCCC(=O)*)N1; Ahx = NCCCCCC(=O)O
result.type: EC50 of pioglitazone for recruitment

{"binder": "{Biotin-Ahx}-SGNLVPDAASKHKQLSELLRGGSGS (source: synthetic peptide (Jerini or Biosynthan, Berlin)) [CBP cofactor peptide (cAMP responsive element binding protein (CREB)-binding protein)]", "EC50 of pioglitazone for recruitment": "79.1 nM"}
{"binder": "{Biotin-Ahx}-GNTKNHPMLMNLLKDNPAQDF (thyroid hormone receptor-associated protein complex 220 kDa component (TRAP220), motif 2, residues 637-657; also called TRAP220_M2; TRAP220 M2; source: synthetic peptide (Jerini or Biosynthan, Berlin))", "EC50 of pioglitazone for recruitment": "431 nM"}

Consider now this further binder.
Request the reported EC50 of pioglitazone for recruitment associated with {Biotin-Ahx}-SNMHGSLLQEKHRILHKLLQNGNSP (source: synthetic peptide (Jerini or Biosynthan, Berlin)) [RAC3_M2 cofactor peptide (receptor-associated co-activator 3, motif 2)]
1070 nM
